The entries below come with measured glutamate slope, % of max values attached.
Target: Voltage-dependent calcium channel gamma-2 subunit (Mus musculus) + Glutamate receptor 2 (Rattus norvegicus) (UniProt O88602+P19491)
Sequence (O88602 whole entry, looked up): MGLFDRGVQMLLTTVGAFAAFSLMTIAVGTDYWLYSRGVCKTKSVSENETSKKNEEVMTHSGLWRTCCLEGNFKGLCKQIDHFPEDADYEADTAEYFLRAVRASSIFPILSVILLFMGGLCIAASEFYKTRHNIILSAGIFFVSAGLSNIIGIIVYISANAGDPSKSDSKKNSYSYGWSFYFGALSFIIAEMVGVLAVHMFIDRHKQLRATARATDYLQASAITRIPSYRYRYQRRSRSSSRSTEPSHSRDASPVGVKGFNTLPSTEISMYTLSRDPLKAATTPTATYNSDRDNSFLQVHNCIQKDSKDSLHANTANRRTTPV
Sequence (P19491 whole entry, looked up): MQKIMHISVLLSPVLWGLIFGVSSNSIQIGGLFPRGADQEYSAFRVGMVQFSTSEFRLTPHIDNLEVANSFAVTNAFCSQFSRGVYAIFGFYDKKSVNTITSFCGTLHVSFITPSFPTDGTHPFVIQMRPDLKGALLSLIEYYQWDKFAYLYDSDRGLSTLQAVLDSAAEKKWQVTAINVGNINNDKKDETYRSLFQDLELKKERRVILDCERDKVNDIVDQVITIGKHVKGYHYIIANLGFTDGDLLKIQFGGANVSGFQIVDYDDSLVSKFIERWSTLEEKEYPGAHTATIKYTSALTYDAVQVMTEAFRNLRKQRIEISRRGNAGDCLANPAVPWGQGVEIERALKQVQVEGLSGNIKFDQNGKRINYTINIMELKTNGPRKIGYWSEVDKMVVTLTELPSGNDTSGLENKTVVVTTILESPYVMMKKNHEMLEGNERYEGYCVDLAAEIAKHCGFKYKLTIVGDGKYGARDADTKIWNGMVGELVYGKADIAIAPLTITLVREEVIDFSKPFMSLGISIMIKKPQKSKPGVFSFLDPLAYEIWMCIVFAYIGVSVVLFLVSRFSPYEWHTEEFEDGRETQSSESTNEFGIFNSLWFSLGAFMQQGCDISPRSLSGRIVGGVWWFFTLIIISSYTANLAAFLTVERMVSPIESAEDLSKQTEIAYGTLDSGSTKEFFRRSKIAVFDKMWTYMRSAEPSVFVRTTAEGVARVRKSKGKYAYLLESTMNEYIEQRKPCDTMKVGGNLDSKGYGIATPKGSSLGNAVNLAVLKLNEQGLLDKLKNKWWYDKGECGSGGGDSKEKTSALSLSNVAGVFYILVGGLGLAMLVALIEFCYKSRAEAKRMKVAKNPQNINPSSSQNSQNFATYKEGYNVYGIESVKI
Assay: modulators of GluA2-stargazin AMPA receptor complexes, primary screen, cell-based, membrane potential dye (AID 1259245)
Settings: HEK293 GluA2+stargazin, membrane potential dye (FDSS), glutamate EC50, at 30 µM, hits were called plate by plate, in both directions; measured here: glutamate response slope, % max
Hit rate of the full screen: of about 40,000 compounds, about 1,400 (3.5%) were called active. The entries come from a sample that favours actives as a whole.
Give your result in % as a bare value.

Example cases with answers are listed next.
                                   molecule                  valuekind  readoutvalue
0  COc1ccc(-n2nc3c(c2NC(=O)C(=O)N2CCCCC2)CSC3)cc1  glutamate slope, % of max          59.2
1  CCC(C(=O)Nc1cc(C)nn1-c1nc2c(cnn2-c2ccccc2)c(=O)[nH]1)c1ccccc1 (configuration not stated)  glutamate slope, % of max          55.6
2  Cc1ccc(-n2ncc3c(=O)n(CC(=O)N4CCc5ccccc54)cnc32)cc1C  glutamate slope, % of max          80.7
3  Cc1cc(NC(=O)C(C)Oc2ccccc2)n(-c2nc3c(cnn3-c3ccc(C)c(C)c3)c(=O)[nH]2)n1 (configuration not stated)  glutamate slope, % of max          19.7
4  Cc1cnc2c(c1SCc1ccc([N+](=O)[O-])cc1)c(=O)n(C)c(=O)n2C  glutamate slope, % of max          69.5
5  CCOC(=O)C(CC)Sc1ccnc2c1c(=O)n(C)c(=O)n2C (configuration not stated)  glutamate slope, % of max          49.8
6  COc1ccc(N2CCN(CCNS(=O)(=O)c3ccc(Cl)s3)CC2)cc1  glutamate slope, % of max          47.8
7  CC(C)c1ccccc1NC(=O)Cc1csc(NC(=O)c2ccc(=O)[nH]c2)n1  glutamate slope, % of max          41.8
8  COC(=O)c1ccsc1NC(=O)CC1Sc2ccccc2NC1=O (configuration not stated)  glutamate slope, % of max          49.8
9  O=C(Nc1ccc(S(=O)(=O)Nc2nccs2)cc1)c1csc(-c2cnccn2)n1  glutamate slope, % of max          85.9

Input line: # get_value(readout='glutamate slope, % of max', item= `CCCC(CCC)C(=O)Nc1cc(C)nn1-c1nc2c(cnn2-c2cccc(Cl)c2)c(=O)[nH]1` )
Output line: 47.5

Input line: Repeat for the following molecule: `COc1ccc(NC(=O)C(=O)NCC2CCN(C)CC2)c(OC)c1`
Output line: 70.1

Input line: Repeat for the following molecule: `COC(=O)c1cc(OC)c(OC)cc1NC(=O)c1cc(C)oc1C`
Output line: 55.7

Input line: Repeat for the following molecule: `CCOc1ccc(Nc2cc(C)nc3c4c(C)cc(C)nc4nn23)cc1`
Output line: 58.7

Input line: Repeat for the following molecule: `COC(=O)Cn1c(=O)c2c(nc3n(-c4ccccc4C)c(C)c(C)n23)n(C)c1=O`
Output line: 56.4

Input line: Repeat for the following molecule: `COCc1cnc2c(c1SCc1ccc(Br)cc1)c(=O)n(C)c(=O)n2C`
Output line: 47.1

Input line: Repeat for the following molecule: `COc1ccc(OC)c2sc(N(CCN3CCOCC3)C(=O)c3cccs3)nc12`
Output line: 65.3

Input line: Repeat for the following molecule: `COc1ccccc1NC(=O)c1csc(NS(=O)(=O)c2ccccc2)n1`
Output line: 47.5

Input line: Repeat for the following molecule: `O=C(Nc1c2c(nn1-c1ccc(F)cc1)CSC2)C(=O)N1CCCCCC1`
Output line: 43.4

Input line: Repeat for the following molecule: `Cn1nnc2c(N3CCN(C(=O)c4cc5ccccc5o4)CC3)ncnc21`
Output line: 41.7
